- measured-on: 5-hydroxytryptamine receptor 1B (Rattus norvegicus, UniProt P28564)
- Sequence (P28564 whole entry): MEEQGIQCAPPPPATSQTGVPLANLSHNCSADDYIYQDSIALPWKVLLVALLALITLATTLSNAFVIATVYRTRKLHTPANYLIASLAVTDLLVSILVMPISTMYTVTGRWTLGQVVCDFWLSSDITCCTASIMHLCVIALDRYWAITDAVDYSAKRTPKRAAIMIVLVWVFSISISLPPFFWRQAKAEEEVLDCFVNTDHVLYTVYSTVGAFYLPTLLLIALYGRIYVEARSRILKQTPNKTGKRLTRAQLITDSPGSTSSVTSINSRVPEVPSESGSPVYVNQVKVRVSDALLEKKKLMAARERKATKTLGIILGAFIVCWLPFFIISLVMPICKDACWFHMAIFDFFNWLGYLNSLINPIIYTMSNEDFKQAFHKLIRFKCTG
pIC50: −log10 of the molar value.

{"columns": ["molecule-smiles", "measured-on", "pIC50"],
 "data": [
  ["CCCN1CCC(COc2nc3scc(C)c3n3cccc23)CC1", "5-hydroxytryptamine receptor 1B (Rattus norvegicus, UniProt P28564)", "< 5.00"]
]}

###

- measured-on: UniProt P35348
- Sequence (P35348 whole entry): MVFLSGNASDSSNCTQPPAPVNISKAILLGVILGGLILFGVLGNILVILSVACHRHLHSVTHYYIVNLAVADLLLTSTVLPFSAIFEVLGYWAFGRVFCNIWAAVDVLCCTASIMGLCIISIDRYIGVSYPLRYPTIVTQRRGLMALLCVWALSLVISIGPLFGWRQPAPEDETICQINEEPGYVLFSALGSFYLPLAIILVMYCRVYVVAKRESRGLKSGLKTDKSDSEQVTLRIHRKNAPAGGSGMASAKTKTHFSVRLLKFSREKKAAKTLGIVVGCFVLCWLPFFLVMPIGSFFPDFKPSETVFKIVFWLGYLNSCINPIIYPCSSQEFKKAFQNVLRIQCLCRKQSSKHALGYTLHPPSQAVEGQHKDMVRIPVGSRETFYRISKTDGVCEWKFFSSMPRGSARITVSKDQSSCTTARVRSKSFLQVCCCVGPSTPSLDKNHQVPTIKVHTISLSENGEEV
- assay-summary: Displacement of [3H]prazosin form human recombinant alpha1A adrenergic receptor
pIC50: −log10 of the molar value.

{"columns": ["molecule-smiles", "measured-on", "pIC50"],
 "data": [
  ["CCCN1CCC(COc2nc3scc(C)c3n3cccc23)CC1", "UniProt P35348", 7.13]
]}

###

- measured-on: 5-hydroxytryptamine receptor 4 (Cavia porcellus) (UniProt O70528)
- Sequence (O70528 whole entry): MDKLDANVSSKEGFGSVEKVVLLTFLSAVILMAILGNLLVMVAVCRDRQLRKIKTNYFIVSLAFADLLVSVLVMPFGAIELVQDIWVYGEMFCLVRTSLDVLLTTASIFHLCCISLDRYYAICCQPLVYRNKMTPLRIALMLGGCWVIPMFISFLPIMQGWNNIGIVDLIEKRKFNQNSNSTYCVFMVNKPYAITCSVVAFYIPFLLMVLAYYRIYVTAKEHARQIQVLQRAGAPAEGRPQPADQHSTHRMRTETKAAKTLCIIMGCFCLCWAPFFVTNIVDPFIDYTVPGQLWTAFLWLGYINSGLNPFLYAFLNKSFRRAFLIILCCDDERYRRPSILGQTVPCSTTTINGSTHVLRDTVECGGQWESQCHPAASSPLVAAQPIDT
- assay-summary: Displacement of [3H]GR-113808 from 5HT4 receptor in guinea pig striatum membrane at 1 uM
- Type: cell membranes

{"columns": ["molecule", "inhibition, %"],
 "data": [
  ["CCN1CCC(COc2nc3scc(C)c3n3cccc23)CC1", 100],
  ["c1cc2c(OCCN3CCNCC3)nc3ccsc3n2c1", 38],
  ["c1cc2c(OCCN3CCCC3)nc3ccsc3n2c1", 60],
  ["C=CCCN1CCC(COc2nc3ccsc3n3cccc23)CC1", 100],
  ["CCC(C)N1CCC(COc2nc3scc(C)c3n3cccc23)CC1 (configuration not stated)", 100],
  ["c1cc2c(OC3CCNCC3)nc3ccsc3n2c1", 26],
  ["CCCCCN1CCC(COc2nc3sccc3n3cccc23)CC1", 100]
]}

###

- measured-on: 5-hydroxytryptamine receptor 4 (Cavia porcellus) (UniProt O70528)
- assay-summary: Displacement of [3H]GR-113808 from 5HT4 receptor in guinea pig striatum membrane at 1 uM
- Type: cell membranes
measure: inhibition (%)

{"columns": ["compound", "unit-abbreviation", "quantitative-result"],
 "data": [
  ["c1cc2c(OCCN3CCCCC3)nc3ccsc3n2c1", "%", 73],
  ["CCCCCN1CCC(COc2nc3scc(C)c3n3cccc23)CC1", "%", 100],
  ["c1cc2c(OCCCN3CCCC3)nc3ccsc3n2c1", "%", 100],
  ["c1cc2c(OCCC3CCCCN3)nc3ccsc3n2c1 (configuration not stated)", "%", 90],
  ["c1cc2c(OCCCN3CCCCC3)nc3ccsc3n2c1", "%", 100],
  ["CCCN1CCC(COc2nc3ccsc3n3cccc23)CC1", "%", 100],
  ["CNCCOc1nc2ccsc2n2cccc12", "%", 7]
]}

###

- measured-on: 5-hydroxytryptamine receptor 4 (Cavia porcellus) (UniProt O70528)
- assay-summary: Displacement of [3H]GR-113808 from 5HT4 receptor in guinea pig striatum membrane at 1 uM
- Assay type: cell membranes
Known inhibition of a selection of compounds

{"columns": ["molecule-smiles", "inhibition, %"],
 "data": [
  ["Cc1csc2nc(OCC3CCN(Cc4ccccc4)CC3)c3cccn3c12", 100],
  ["CCCN1CCC(Oc2nc3ccsc3n3cccc23)CC1", 67],
  ["Cc1csc2nc(OCCCN3CCCCC3)c3cccn3c12", 100],
  ["c1ccc(CN2CCN(CCOc3nc4ccsc4n4cccc34)CC2)cc1", 13],
  ["CCCN1CCC(COc2nc3scc(C)c3n3cccc23)CC1", 100],
  ["CN(CCOc1nc2ccsc2n2cccc12)Cc1ccccc1", 20],
  ["CCCCN1CCC(COc2nc3scc(C)c3n3cccc23)CC1", 100],
  ["CCCCN1CCC(Oc2nc3ccsc3n3cccc23)CC1", 50],
  ["Cc1csc2nc(OCC3CCN(C(C)C)CC3)c3cccn3c12", 100],
  ["CCCN1CCC(COc2nc3sccc3n3cccc23)CC1", 100],
  ["c1ccc(CN2CCC(COc3nc4ccsc4n4cccc34)CC2)cc1", 100],
  ["c1cc2c(OCC3CCNCC3)nc3ccsc3n2c1", 74]
]}

###

- measured-on: 5-hydroxytryptamine receptor 1D (Rattus norvegicus, UniProt P28565)
- Sequence (P28565 whole entry): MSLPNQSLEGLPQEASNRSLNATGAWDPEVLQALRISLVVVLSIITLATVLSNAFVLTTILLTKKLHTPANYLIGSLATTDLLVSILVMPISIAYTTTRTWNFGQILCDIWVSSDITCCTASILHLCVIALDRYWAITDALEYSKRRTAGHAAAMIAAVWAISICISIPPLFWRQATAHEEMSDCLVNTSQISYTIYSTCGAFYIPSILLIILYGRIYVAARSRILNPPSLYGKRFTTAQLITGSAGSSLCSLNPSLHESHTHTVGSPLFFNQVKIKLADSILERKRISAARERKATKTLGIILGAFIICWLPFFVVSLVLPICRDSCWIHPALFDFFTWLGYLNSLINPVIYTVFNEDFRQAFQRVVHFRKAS
- assay-summary: Displacement of [3H]5OH-tryptamine rat recombinant 5HT1D receptor
pIC50: −log10 of the molar value.

{"columns": ["molecule-smiles", "pIC50"],
 "data": [
  ["CCCN1CCC(COc2nc3scc(C)c3n3cccc23)CC1", 5.34]
]}

###

- measured-on: 5-hydroxytryptamine receptor 2B (Homo sapiens, UniProt P41595)
- Sequence (P41595 whole entry): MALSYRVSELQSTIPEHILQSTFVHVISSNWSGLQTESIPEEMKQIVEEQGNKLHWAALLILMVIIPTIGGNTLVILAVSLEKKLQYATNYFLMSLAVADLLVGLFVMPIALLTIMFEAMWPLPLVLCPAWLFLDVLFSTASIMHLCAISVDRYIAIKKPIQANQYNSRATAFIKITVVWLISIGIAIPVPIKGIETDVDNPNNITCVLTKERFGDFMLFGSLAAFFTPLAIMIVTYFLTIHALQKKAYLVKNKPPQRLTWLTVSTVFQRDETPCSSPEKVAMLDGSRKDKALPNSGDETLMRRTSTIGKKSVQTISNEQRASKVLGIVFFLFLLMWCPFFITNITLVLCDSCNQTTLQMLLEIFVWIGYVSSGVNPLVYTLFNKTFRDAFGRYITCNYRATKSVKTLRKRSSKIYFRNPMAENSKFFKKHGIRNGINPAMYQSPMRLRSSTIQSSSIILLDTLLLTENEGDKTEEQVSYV
- assay-summary: Displacement of [3H]mesulergine from human recombinant 5HT2B receptor
Known IC50 of a selection of compounds

{"columns": ["molecule-smiles", "unit-abbreviation", "IC50"],
 "data": [
  ["CCCCN1CCC(COc2nc3ccsc3n3cccc23)CC1", "nM", 52.5],
  ["CCCN1CCC(COc2nc3scc(C)c3n3cccc23)CC1", "nM", 282],
  ["CCN1CCC(COc2nc3ccsc3n3cccc23)CC1", "nM", 9.77]
]}

###

Known pIC50 of a selection of compounds
- measured-on: 5-hydroxytryptamine receptor 2C (Homo sapiens, UniProt P28335)
- Sequence (P28335 whole entry): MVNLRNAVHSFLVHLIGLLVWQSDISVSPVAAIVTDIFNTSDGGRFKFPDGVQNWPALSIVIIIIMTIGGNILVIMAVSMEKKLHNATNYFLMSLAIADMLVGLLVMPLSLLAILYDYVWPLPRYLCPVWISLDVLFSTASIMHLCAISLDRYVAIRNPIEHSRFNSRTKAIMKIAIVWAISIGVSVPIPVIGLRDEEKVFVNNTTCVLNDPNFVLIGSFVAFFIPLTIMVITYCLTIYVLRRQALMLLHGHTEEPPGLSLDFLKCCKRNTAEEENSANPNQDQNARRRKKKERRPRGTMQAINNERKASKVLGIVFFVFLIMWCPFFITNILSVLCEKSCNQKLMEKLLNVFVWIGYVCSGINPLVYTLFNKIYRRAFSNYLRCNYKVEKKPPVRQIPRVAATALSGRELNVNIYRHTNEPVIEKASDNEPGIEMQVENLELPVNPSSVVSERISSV
- assay-summary: Displacement of [3H]mesulergine from human recombinant 5HT2C receptor
pIC50: −log10 of the molar value.
measure: pIC50

{"columns": ["molecule-smiles", "measured-on", "measure", "quantitative-result"],
 "data": [
  ["CCCN1CCC(COc2nc3scc(C)c3n3cccc23)CC1", "5-hydroxytryptamine receptor 2C (Homo sapiens, UniProt P28335)", "pIC50", 7.14],
  ["CCN1CCC(COc2nc3ccsc3n3cccc23)CC1", "5-hydroxytryptamine receptor 2C (Homo sapiens, UniProt P28335)", "pIC50", 5.25],
  ["CCCCN1CCC(COc2nc3ccsc3n3cccc23)CC1", "5-hydroxytryptamine receptor 2C (Homo sapiens, UniProt P28335)", "pIC50", 4.53]
]}

###

- measured-on: 5-hydroxytryptamine receptor 5A (Homo sapiens)
- Sequence (P47898 whole entry): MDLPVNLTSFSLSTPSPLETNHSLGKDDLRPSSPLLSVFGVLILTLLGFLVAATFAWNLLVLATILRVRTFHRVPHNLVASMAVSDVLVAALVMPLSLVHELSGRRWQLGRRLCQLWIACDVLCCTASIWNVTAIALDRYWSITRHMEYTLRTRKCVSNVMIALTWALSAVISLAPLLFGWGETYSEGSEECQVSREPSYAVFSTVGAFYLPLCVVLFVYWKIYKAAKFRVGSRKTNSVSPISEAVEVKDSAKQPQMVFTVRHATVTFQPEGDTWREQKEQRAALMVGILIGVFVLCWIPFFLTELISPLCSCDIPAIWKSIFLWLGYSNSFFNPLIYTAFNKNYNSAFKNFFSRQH
- assay-summary: Displacement of [3H]LSD form human recombinant 5HT5A receptor
pIC50: −log10 of the molar value.

{"columns": ["molecule-smiles", "pIC50"],
 "data": [
  ["CCCN1CCC(COc2nc3scc(C)c3n3cccc23)CC1", "< 5.00"]
]}

###

- measured-on: 5-hydroxytryptamine receptor 3A (Homo sapiens)
- Sequence (P46098 whole entry): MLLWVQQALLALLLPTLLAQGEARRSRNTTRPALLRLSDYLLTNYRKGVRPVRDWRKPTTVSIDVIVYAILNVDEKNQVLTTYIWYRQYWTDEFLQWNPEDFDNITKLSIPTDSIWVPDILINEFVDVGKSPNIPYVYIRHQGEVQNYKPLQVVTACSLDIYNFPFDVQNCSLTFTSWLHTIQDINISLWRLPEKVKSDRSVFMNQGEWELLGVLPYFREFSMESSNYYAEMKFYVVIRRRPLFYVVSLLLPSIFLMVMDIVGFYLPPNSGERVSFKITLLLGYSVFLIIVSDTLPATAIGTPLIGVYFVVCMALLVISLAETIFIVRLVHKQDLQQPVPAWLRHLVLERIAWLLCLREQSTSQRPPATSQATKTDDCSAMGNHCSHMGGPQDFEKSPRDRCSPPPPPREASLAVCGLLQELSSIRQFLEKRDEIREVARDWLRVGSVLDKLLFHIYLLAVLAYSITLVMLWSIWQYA
- assay-summary: Displacement of [3H]granisetron from human recombinant 5HT3 receptor
pIC50: −log10 of the molar value.

{"columns": ["molecule-smiles", "pIC50"],
 "data": [
  ["CCCN1CCC(COc2nc3scc(C)c3n3cccc23)CC1", 8.16],
  ["CCCCN1CCC(COc2nc3ccsc3n3cccc23)CC1", "< 5.00"],
  ["CCN1CCC(COc2nc3ccsc3n3cccc23)CC1", "< 6.00"]
]}
